Protein target, amino acids: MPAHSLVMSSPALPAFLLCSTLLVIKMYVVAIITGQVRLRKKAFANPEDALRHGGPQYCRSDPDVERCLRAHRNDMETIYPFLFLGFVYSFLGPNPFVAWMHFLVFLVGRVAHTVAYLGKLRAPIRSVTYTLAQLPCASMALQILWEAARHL
OBSERVATION TYPE: IC50 (nM)

P: CC(OC(C)(C)C)c1cc2cc(C(=O)NS(=O)(=O)c3ccccc3S(N)(=O)=O)ccc2o1 (stereo not drawn)
Q: NS(=O)(=O)c1ccccc1S(=O)(=O)NC(=O)c1c(F)cc(C#CC2CCCC2)cc1F
R: Cc1cc(-c2cc3ccccc3o2)ccc1C(=O)NS(=O)(=O)c1ccccc1S(N)(=O)=O
Hello, I need these entries ordered by IC50, highest reading first. Thanks! Labels, requested order.
P, Q, R
(P: 2100 nM, Q: 330 nM, R: 46 nM)
